Source listed as paper PMC8159961.

// %inh 5-HT6 average lookup, one value per entry
target_system: human 5-HT6 receptor (Homo sapiens)
Construct: expressed in transfected cells
Sequence (P50406 whole entry): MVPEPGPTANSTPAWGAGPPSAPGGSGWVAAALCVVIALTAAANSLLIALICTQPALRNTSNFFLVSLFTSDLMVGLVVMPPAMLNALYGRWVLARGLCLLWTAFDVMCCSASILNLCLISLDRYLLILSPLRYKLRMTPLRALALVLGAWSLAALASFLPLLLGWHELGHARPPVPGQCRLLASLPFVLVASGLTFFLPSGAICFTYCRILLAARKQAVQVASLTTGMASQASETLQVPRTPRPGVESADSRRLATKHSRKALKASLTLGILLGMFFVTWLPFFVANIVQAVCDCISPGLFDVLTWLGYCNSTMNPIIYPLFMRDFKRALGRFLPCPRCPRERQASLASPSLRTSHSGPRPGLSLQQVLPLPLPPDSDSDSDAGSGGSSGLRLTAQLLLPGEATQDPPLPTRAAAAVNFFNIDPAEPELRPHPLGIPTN
assay_notes: GPCR radioligand binding assay, [3H]-LSD displacement, HEK293 membranes
condition_details: 5-HT6; average of exp_1 and exp_2
Only the number, expressed in %, is required.

Field: example entries. Status: answers known.
>  <compound>
Cc1ccc(CCNc2ccccc2)cn1

>  <target_system>
human 5-HT6 receptor (Homo sapiens)

>  <readout_value>
-0.844

$$$$
>  <compound>
CC1(C)OC(=O)c2cc(Br)c(O)cc2O1

>  <target_system>
human 5-HT6 receptor (Homo sapiens)

>  <readout_value>
56

$$$$
>  <compound>
N#CC1CCS(=O)(=O)C1 (stereo not shown)

>  <target_system>
human 5-HT6 receptor (Homo sapiens)

>  <readout_value>
22

$$$$
>  <compound>
O=C(O)C1CCCN(C(=O)N2CCCC2)C1 (stereo not shown)

>  <target_system>
human 5-HT6 receptor (Homo sapiens)

>  <readout_value>
27

$$$$
>  <compound>
CN1CC(=O)NC1=O

>  <target_system>
human 5-HT6 receptor (Homo sapiens)

>  <readout_value>
35

$$$$

[ask] Check the records and state %inh 5-HT6 average for Cc1cc(-c2ccccc2)n[nH]1
[reply] 48

[ask] Using the record for COc1ccccc1C1CCNCC1 , state its measured %inh 5-HT6 average.
[reply] 71

[ask] Hello, please tell me recorded %inh 5-HT6 average for this one: N#Cc1ccc(C(=O)N2CCOCC2)cc1
[reply] 37

[ask] Look up and state reported %inh 5-HT6 average for O=C(CN1CCNCC1)c1ccccc1
[reply] 49

[ask] Note %inh 5-HT6 average for the compound shown: CCc1nccn1CC(=O)O
[reply] -2

[ask] Please look at this compound and report its %inh 5-HT6 average: CN(C)c1cc(CN)ccn1
[reply] 16

[ask] Give the reported value of %inh 5-HT6 average for this record: Cn1nc(C(F)(F)F)cc1O
[reply] -24
